- experimental_system: T1, Cynomolgus TCR(AEA41865/AEA41866)-zipper protein (cynomolgus monkey)
- T1 construct: also called cyTCR-zipper protein; cynoTCR zipper
- T1 TCR alpha: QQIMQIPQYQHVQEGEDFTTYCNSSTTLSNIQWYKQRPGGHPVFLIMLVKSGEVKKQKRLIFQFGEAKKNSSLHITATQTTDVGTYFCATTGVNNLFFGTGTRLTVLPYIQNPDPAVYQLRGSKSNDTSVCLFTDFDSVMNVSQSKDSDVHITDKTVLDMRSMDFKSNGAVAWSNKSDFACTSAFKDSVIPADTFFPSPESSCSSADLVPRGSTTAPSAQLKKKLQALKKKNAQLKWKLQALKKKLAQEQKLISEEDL
- T1 TCR beta: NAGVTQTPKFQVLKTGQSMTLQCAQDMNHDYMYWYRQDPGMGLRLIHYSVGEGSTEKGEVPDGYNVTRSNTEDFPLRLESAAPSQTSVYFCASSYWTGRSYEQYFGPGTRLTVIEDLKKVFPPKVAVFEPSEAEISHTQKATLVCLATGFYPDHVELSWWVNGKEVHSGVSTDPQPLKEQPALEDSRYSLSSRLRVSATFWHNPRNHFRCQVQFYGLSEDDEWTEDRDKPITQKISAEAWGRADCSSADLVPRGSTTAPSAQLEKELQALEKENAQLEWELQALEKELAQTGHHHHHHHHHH
- test_protocol: SPR ProteOn off-rate screen
measured_metric: koff (s⁻¹)
# output: bare number, implied unit s⁻¹

Lookup: Query: koff; subject: T017000593 (VHH) VHH: EVQLVESGGGVVQPGGSLRLSCVASGAVHKLNFYGWYRQAPGKEREKVAHISIGDQTDYADSAKGRFTISRDESKNMVYLQMNSLRPEDTALYFCRAMSKIWPYDYWGQGTLVTVSS
Found: 0.00019

Lookup: Query: koff; subject: T017000588 (VHH) VHH: EVQLVESGGGVVQPGGSLRLSCVASGAVHKINFYGWYRQAPGKEREKVAHISIGDQTDYADSAKGRFTISRDESKNMVYLQMNSLRPEDTALYFCRAMSKIWPYDYWGQGTLVTVSS
Found: 0.000158
